B1: 6NMW (parent)
chain: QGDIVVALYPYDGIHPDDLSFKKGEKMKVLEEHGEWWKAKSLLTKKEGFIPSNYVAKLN

variants of: B1; assay: folding stability dG (cDNA display proteolysis); higher = more stable; conditions: PBS, room temperature

[
  {
    "VARIANT_DESCRIPTOR": "E31T",
    "folding stability dG / kcal/mol": 2.69
  },
  {
    "VARIANT_DESCRIPTOR": "K46I",
    "folding stability dG / kcal/mol": 2.34
  },
  {
    "VARIANT_DESCRIPTOR": "I4K",
    "folding stability dG / kcal/mol": 0.841
  },
  {
    "VARIANT_DESCRIPTOR": "V29W",
    "folding stability dG / kcal/mol": -0.028
  },
  {
    "VARIANT_DESCRIPTOR": "H33L",
    "folding stability dG / kcal/mol": 3.41
  },
  {
    "VARIANT_DESCRIPTOR": "L30C",
    "folding stability dG / kcal/mol": 2.42
  },
  {
    "VARIANT_DESCRIPTOR": "Y54N",
    "folding stability dG / kcal/mol": 1.04
  },
  {
    "VARIANT_DESCRIPTOR": "F49E",
    "folding stability dG / kcal/mol": 0.945
  },
  {
    "VARIANT_DESCRIPTOR": "K38T",
    "folding stability dG / kcal/mol": 2.18
  },
  {
    "VARIANT_DESCRIPTOR": "P10L",
    "folding stability dG / kcal/mol": 2.23
  },
  {
    "VARIANT_DESCRIPTOR": "I50A",
    "folding stability dG / kcal/mol": 0.132
  },
  {
    "VARIANT_DESCRIPTOR": "K26I",
    "folding stability dG / kcal/mol": 4.68
  },
  {
    "VARIANT_DESCRIPTOR": "L19Y",
    "folding stability dG / kcal/mol": 0.613
  },
  {
    "VARIANT_DESCRIPTOR": "A39G",
    "folding stability dG / kcal/mol": 1.44
  },
  {
    "VARIANT_DESCRIPTOR": "Q1A",
    "folding stability dG / kcal/mol": 3.87
  },
  {
    "VARIANT_DESCRIPTOR": "G13F",
    "folding stability dG / kcal/mol": 0.38
  },
  {
    "VARIANT_DESCRIPTOR": "K38C",
    "folding stability dG / kcal/mol": 3.63
  },
  {
    "VARIANT_DESCRIPTOR": "E32L",
    "folding stability dG / kcal/mol": 4.21
  },
  {
    "VARIANT_DESCRIPTOR": "S20M",
    "folding stability dG / kcal/mol": 1.88
  },
  {
    "VARIANT_DESCRIPTOR": "M27F",
    "folding stability dG / kcal/mol": 3.72
  },
  {
    "VARIANT_DESCRIPTOR": "K26P",
    "folding stability dG / kcal/mol": 2.39
  },
  {
    "VARIANT_DESCRIPTOR": "A7V",
    "folding stability dG / kcal/mol": 0.268
  },
  {
    "VARIANT_DESCRIPTOR": "V5G",
    "folding stability dG / kcal/mol": -0.073
  },
  {
    "VARIANT_DESCRIPTOR": "H33P",
    "folding stability dG / kcal/mol": 1.43
  },
  {
    "VARIANT_DESCRIPTOR": "L19C",
    "folding stability dG / kcal/mol": 0.728
  },
  {
    "VARIANT_DESCRIPTOR": "E35A",
    "folding stability dG / kcal/mol": 4.01
  },
  {
    "VARIANT_DESCRIPTOR": "Y11M",
    "folding stability dG / kcal/mol": 0.669
  },
  {
    "VARIANT_DESCRIPTOR": "Y9Q",
    "folding stability dG / kcal/mol": 3.15
  },
  {
    "VARIANT_DESCRIPTOR": "H33Q",
    "folding stability dG / kcal/mol": 3.06
  },
  {
    "VARIANT_DESCRIPTOR": "D12I",
    "folding stability dG / kcal/mol": 4.38
  },
  {
    "VARIANT_DESCRIPTOR": "Q1T",
    "folding stability dG / kcal/mol": 4.18
  },
  {
    "VARIANT_DESCRIPTOR": "N53G",
    "folding stability dG / kcal/mol": 3.47
  },
  {
    "VARIANT_DESCRIPTOR": "G34V",
    "folding stability dG / kcal/mol": 1.41
  },
  {
    "VARIANT_DESCRIPTOR": "L42I",
    "folding stability dG / kcal/mol": 2.51
  },
  {
    "VARIANT_DESCRIPTOR": "H33G",
    "folding stability dG / kcal/mol": 3.24
  },
  {
    "VARIANT_DESCRIPTOR": "V6K",
    "folding stability dG / kcal/mol": 1.52
  },
  {
    "VARIANT_DESCRIPTOR": "H15Y",
    "folding stability dG / kcal/mol": 3.75
  },
  {
    "VARIANT_DESCRIPTOR": "E35M",
    "folding stability dG / kcal/mol": 4.06
  },
  {
    "VARIANT_DESCRIPTOR": "A7F",
    "folding stability dG / kcal/mol": -0.602
  },
  {
    "VARIANT_DESCRIPTOR": "K57T",
    "folding stability dG / kcal/mol": 2.85
  },
  {
    "VARIANT_DESCRIPTOR": "E31F",
    "folding stability dG / kcal/mol": 3.14
  },
  {
    "VARIANT_DESCRIPTOR": "I50L",
    "folding stability dG / kcal/mol": 1.58
  },
  {
    "VARIANT_DESCRIPTOR": "Y11K",
    "folding stability dG / kcal/mol": 0.796
  },
  {
    "VARIANT_DESCRIPTOR": "D3P",
    "folding stability dG / kcal/mol": 3.09
  },
  {
    "VARIANT_DESCRIPTOR": "I14C",
    "folding stability dG / kcal/mol": 4.14
  },
  {
    "VARIANT_DESCRIPTOR": "V6I",
    "folding stability dG / kcal/mol": 4.06
  }
]
